- EXPERIMENTAL TARGET: mouse EphA4-Fc (R&D Systems) (mouse, UniProt Q03137 20-547)
- Sequence (Q03137 20-547): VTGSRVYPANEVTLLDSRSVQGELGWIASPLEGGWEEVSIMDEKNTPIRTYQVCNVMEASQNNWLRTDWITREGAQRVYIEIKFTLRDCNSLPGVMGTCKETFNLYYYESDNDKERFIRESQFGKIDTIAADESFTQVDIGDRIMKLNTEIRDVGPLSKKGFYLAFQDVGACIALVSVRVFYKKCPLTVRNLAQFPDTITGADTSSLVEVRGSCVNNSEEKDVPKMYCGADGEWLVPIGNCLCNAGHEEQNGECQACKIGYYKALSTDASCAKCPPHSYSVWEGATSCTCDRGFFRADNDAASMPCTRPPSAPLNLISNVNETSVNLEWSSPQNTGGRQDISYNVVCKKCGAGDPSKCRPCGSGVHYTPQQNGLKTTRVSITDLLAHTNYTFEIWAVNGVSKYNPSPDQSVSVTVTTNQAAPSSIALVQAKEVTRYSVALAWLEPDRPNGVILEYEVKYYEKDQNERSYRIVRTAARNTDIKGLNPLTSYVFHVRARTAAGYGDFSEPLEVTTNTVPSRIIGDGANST
- MEASUREMENT PROTOCOL: SPR
Kindly state koff for each of the entries shown.
Numbers only, in s⁻¹.

Worked examples, 5 binders total:
binder="Nb 57 (VHH, biotin on primary amines (EZ link NHS biotin) in the Eph receptor selectivity AlphaScreen only) VHH: QVQLQESGGGLVQPGGSLRLSCAASGFTFSSYYMYWVRQAPGKGLEWVSTINTGGGSTNYADSVKGRFIISRDNAKNTVYLQMNSLKPEDTAVYYCNAFAAGWGPDYWGQGTQVTVSS" property_name=koff val=0.288
binder="Nb 50 (VHH, biotin on primary amines (EZ link NHS biotin) in the Eph receptor selectivity AlphaScreen only) VHH: QVQLQESGGGLVQAGGSLRLSCAASGRTFNSYAEAWFRQAPGKEREMIAAVTKAGTTNYANPVKGRFTISRDDAKNMVYLQMNNLKPEDSAVYYCNAISPLWDEYDFWGPGTQVTVSS" property_name=koff val=0.114
binder="Nb 53 (VHH, biotin on primary amines (EZ link NHS biotin) in the Eph receptor selectivity AlphaScreen only) VHH: QVQLQESGGGVVQAGGSLRLSCAASGRAFSSYAMGWFRQAPGTKREMIAAVTRAGTTNYANPVKGRFTISRDDAKNMVYLQMNNLKPEDSAVYYCNAISPLWDEYDFWGPGTQVTVSS" property_name=koff val=0.0244
binder="Nb 19 (VHH) VHH: QVQLQESGGGLVQPGGSLRLSCAATGRNFNAYSIAWFRQAPGKEREFVASINWSGSNTYYAVAVKGRFTTSRDNAKNTVYLQMNSLKPEDTAVYYCNAFAAGWGPDYWGQGTQVTVSS" property_name=koff val=0.135
binder="Nb 22 (VHH, biotin on primary amines (EZ link NHS biotin) in the Eph receptor selectivity AlphaScreen only) VHH: QVQLQESGGGPVRAGESLRLSCTASGRAFSTYTMGWFRQAPGKERELVAVITPGGNTNYADSVKGRFTISRDDAKNTVYLQMNSLKPVDTAVYYCHVVLAVVGTGNEYDVWGQGTQVTVSS" property_name=koff val=0.023

Looking up Nb 39 (VHH, biotin on primary amines (EZ link NHS biotin) in the Eph receptor selectivity AlphaScreen only) VHH: QVQLQESGGGLVQPGGSLKLSCAASGFTFSTYAMSWVRQAPGKGLEWVSRINSGGGYTWHADSVKGRFTISRDNARNTVYLQMNNLKPEDTAVYYCTNLNTGWRPEYWGQGTQVTVSS , I see its koff listed as 0.0158
